experiment: gradient 5% acetonitrile 3 min, to 50% in 2 min, to 85% in 15 min, held 3 min, 100 µL/min; settings: column: Zorbax Extend-C18 2.1 x 50 mm; eluents: water / acetonitrile, 0.1% formic acid
ENDPOINT: RP-LC retention time (s)

# COMPOUND, ENDPOINT, VAL
data = [
    ("CC(C)(CO)NCc1ccc(-c2ccc(F)c(Cl)c2)o1", "RP-LC retention time", 644),
    ("Cc1ccc2c(c1)sc1nncn12", "RP-LC retention time", 749),
    ("CCN1CCCn2cc(S(=O)(=O)Nc3ccc(C)cc3)cc2C1=O", "RP-LC retention time", 1130),
    ("Cc1nc(C)c(C(=O)N2CCCn3cc(-c4ccccc4F)nc32)s1", "RP-LC retention time", 679),
    ("Cc1cc(C)c2c(N3CCOCC3)nc(C(=O)N(C)Cc3ccco3)nc2n1", "RP-LC retention time", 611),
    ("O=C(CCC[C@@H]1[C@H]2CCCN3CCC[C@@H](CN1C(=O)COc1ccc(Cl)cc1)[C@@H]23)N1CCOCC1", "RP-LC retention time", 626),
    ("CNC(=O)N1CCC(C2CCN(C(=O)CCCC(=O)O)C2)CC1 (stereo unspecified)", "RP-LC retention time", 572),
    ("CCn1ccc2c(cc(C(=O)Nc3ccc(Br)cc3C)n2C)c1=O", "RP-LC retention time", 832),
]

a: COc1ccccc1CC(=O)Nc1cnc(-c2cccnc2)nc1
b: CC(=O)N1CCCSc2ccc(S(=O)(=O)N3CCN(c4cccc(C)c4)C(C)C3)cc21 (stereo unspecified)
Kindly identify the item with the lower RP-LC retention time figure among these two: a and b # reply format: chosen label
a
(a: 663 s, b: 982 s)

These measurements were taken from the METLIN SMRT retention time set (Domingo-Almenara et al. 2019).
